Tgt: Ubiquitin carboxyl-terminal hydrolase 1 (Homo sapiens) (UniProt O94782)
Sequence (O94782 whole entry, looked up): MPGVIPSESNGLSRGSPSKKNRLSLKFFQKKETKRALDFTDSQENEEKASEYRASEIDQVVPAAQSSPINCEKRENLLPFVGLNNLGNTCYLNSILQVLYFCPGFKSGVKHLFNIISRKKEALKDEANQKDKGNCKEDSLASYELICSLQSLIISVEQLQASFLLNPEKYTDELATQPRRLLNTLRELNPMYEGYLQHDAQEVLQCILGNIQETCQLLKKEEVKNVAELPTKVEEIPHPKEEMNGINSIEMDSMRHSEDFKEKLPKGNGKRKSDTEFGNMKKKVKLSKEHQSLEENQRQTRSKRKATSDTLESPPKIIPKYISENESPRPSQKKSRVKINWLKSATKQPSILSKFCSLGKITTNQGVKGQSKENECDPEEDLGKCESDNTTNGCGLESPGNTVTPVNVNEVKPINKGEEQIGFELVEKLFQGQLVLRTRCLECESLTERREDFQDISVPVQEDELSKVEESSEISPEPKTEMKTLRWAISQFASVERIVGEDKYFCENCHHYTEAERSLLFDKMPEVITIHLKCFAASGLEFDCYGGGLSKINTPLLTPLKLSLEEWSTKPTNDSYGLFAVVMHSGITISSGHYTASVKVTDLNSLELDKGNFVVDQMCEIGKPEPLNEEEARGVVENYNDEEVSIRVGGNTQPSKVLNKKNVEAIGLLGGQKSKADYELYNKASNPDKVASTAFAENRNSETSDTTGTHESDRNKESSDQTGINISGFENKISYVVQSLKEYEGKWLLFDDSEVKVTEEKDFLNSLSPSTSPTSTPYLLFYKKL
Assay Comment: Inhibitors of USP1/UAF1: Pilot qHTS (AID 504865);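 also: rhodamine fluorescence freed from ubiquitin-rhodamine substrate followed over time; top concentration of the series differs between compounds; nearly all actives have a fitted effect of over 35% in size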
Experimental Parameters: purified USP1/UAF1, Ub-rhodamine cleavage fluorescence; series mostly up to 114 µM
Inconclusive results are not listed. Active and inactive are the calls of the source. Calls follow the shape of the dose curve; as a rule, active = well fitted inhibition curve with a large enough effect; inconclusive = small, poorly fitted or top-dose-only effect; inactive = flat fitted curve, though single readings scatter.
Value Type: outcome

CC(=O)OCC1=C(C(=O)O)N2C(=O)[C@@H](NC(=O)CCC[C@@H](N)C(=O)O)[C@H]2SC1 : inactive
COCC(C)N(C(=O)CCl)c1c(C)csc1C (stereo not drawn) : inactive
CN1c2ccccc2C(NCCCCCCC(=O)O)c2ccc(Cl)cc2S1(=O)=O (stereo not drawn) : inactive
